system: KRas^Q61H (Homo sapiens, UniProt P01116, Q61H)
Construct: Biotinylated KRas (corresponding to amino acids 1-169, produced at Accelegan Inc.); biotin (biotinylated); purchased Accelegan Inc
Sequence (P01116 1-169 isoform P01116-2 Q61H): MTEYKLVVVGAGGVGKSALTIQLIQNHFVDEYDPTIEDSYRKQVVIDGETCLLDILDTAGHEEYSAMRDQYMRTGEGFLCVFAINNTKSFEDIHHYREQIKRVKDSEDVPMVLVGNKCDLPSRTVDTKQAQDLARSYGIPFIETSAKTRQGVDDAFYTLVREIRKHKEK
assayDetails: KRas binding assay (TR-FRET tracer displacement), KRas Q61H
cond: TR-FRET tracer displacement, KRas Q61H
Task for the reader: assign each of the following compounds its reported log10 of IC50.
All values: log10 IC50 [nM].

Q) API: value(readout=log10 of IC50, system=KRas^Q61H (Homo sapiens, UniProt P01116, Q61H)) for record Cc1cc2c(c(-c3ncc4c(N5CCC[C@@](C)(O)C5)nc(OCC56CCCN5CCC6)nc4c3F)c1C)CC(=O)N2
A) 2.87

Q) API: value(readout=log10 of IC50, system=KRas^Q61H (Homo sapiens, UniProt P01116, Q61H)) for record Oc1cc(-c2ncc3c(N4C[C@@H]5C[C@H](C4)[C@H](O)C5)nc(OC[C@@]45CCCN4C[C@H](F)C5)nc3c2F)c2ccccc2c1C(F)(F)F
A) 3.61

Q) API: value(readout=log10 of IC50, system=KRas^Q61H (Homo sapiens, UniProt P01116, Q61H)) for record Oc1cc(-c2ncc3c(N4C[C@@H]5C[C@H](C4)[C@H](O)C5)nc(OC[C@@]45CCCN4C[C@H](F)C5)nc3c2F)c2ccccc2c1F
A) 2.26

Q) API: value(readout=log10 of IC50, system=KRas^Q61H (Homo sapiens, UniProt P01116, Q61H)) for record Cc1cc2[nH]c(=O)[nH]c2c(-c2ncc3c(N4CCC[C@@](C)(O)C4)nc(OCC45CCCN4CCC5)nc3c2F)c1C
A) 3.36

Q) API: value(readout=log10 of IC50, system=KRas^Q61H (Homo sapiens, UniProt P01116, Q61H)) for record C[C@@]1(O)CCCN(c2nc(OCC34CCCN3CCC4)nc3c(F)c(-c4c(C5CC5)c(Cl)cc5[nH]ncc45)ncc23)C1
A) 1.26

Q) API: value(readout=log10 of IC50, system=KRas^Q61H (Homo sapiens, UniProt P01116, Q61H)) for record Oc1cc(Cl)c(C2CC2)c(-c2ncc3c(N4C[C@H]5C[C@@H](C4)[C@H](O)C5)nc(OCC45CCCN4CCC5)nc3c2F)c1
A) 0.95

Q) API: value(readout=log10 of IC50, system=KRas^Q61H (Homo sapiens, UniProt P01116, Q61H)) for record Oc1cc(-c2ncc3c(N4C[C@@H]5C[C@H](C4)[C@H](O)C5)nc(OC[C@@]45CCCN4C[C@H](F)C5)nc3c2F)c2ccccc2c1Br
A) 2.95

Q) API: value(readout=log10 of IC50, system=KRas^Q61H (Homo sapiens, UniProt P01116, Q61H)) for record CCc1cccc2cc3[nH]ncc3c(-c3ncc4c(N5CCCn6nc(C(=O)N(C)C)cc6C5)nc(OC[C@@]56CCCN5C[C@H](F)C6)nc4c3F)c12
A) 1.32

Q) API: value(readout=log10 of IC50, system=KRas^Q61H (Homo sapiens, UniProt P01116, Q61H)) for record Cc1cc2[nH]ncc2c(-c2ncc3c(N4CCC[C@]5(C4)NC(=O)NC5=O)nc(OCC4(CN(C)C)CC4)nc3c2F)c1C
A) 1.90

Q) API: value(readout=log10 of IC50, system=KRas^Q61H (Homo sapiens, UniProt P01116, Q61H)) for record Cc1ccc2c(-c3ncc4c(N5C[C@@H]6C[C@H](C5)[C@H](O)C6)nc(OC[C@@]56CCCN5C[C@H](F)C6)nc4c3F)cc(O)cc2c1
A) 2.22

---

system: KRas^WT (Homo sapiens)
Construct: Biotinylated KRas (corresponding to amino acids 1-169, produced at Accelegan Inc.); biotin (biotinylated); purchased Accelegan Inc
Sequence (P01116 1-169 isoform P01116-2): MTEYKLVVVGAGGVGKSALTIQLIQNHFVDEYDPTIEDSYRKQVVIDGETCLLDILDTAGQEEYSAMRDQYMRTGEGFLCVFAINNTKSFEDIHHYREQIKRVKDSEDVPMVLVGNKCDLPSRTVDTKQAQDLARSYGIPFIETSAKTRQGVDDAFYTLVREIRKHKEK
assayDetails: KRas binding assay (TR-FRET tracer displacement), KRas WT
cond: TR-FRET tracer displacement, KRas WT
propertyName: IC50

Q) Look up IC50 for this compound: Cc1cc2[nH]ncc2c(-c2ncc3c(N4CCC[C@]5(C4)NC(=O)NC5=O)nc(OC[C@@]45CCCN4C[C@H](F)C5)nc3c2F)c1C
A) 12 nM

Q) Look up IC50 for this compound: Cc1cc2[nH]nnc2c(-c2ncc3c(N4CCC[C@@](C)(O)C4)nc(OC[C@@]45CCCN4C[C@H](F)C5)nc3c2F)c1C
A) 151 nM

Q) Look up IC50 for this compound: Cc1cc2[nH]nnc2c(-c2ncc3c(N4CCC[C@@](C)(O)C4)nc(OCC45CCCN4CCC5)nc3c2F)c1C
A) 10500 nM

Q) Look up IC50 for this compound: O=C1NC(=O)C2CC(c3nc(OCC45CCCN4CCC5)nc4c(F)c(-c5cccc6cccc(F)c56)ncc34)=CC12 (stereo not drawn)
A) > 100000 nM

Q) Look up IC50 for this compound: CCc1cccc2cc3[nH]ncc3c(-c3ncc4c(N5CCCC6(CC(=O)N6)C5)nc(OC[C@@]56CCCN5C[C@H](F)C6)nc4c3F)c12 (stereo partly drawn)
A) 12 nM

Q) Look up IC50 for this compound: CCc1c(F)ccc2cc(O)cc(-c3ncc4c(N5C[C@@H]6C[C@H](C5)[C@H](O)C6)nc(OC[C@@]56CCCN5C[C@H](OC)C6)nc4c3F)c12
A) < 2 nM

---

system: KRas^G12V (Homo sapiens, UniProt P01116, G12V)
Construct: Biotinylated KRas (corresponding to amino acids 1-169, produced at Accelegan Inc.); biotin (biotinylated); purchased Accelegan Inc
Sequence (P01116 1-169 isoform P01116-2 G12V): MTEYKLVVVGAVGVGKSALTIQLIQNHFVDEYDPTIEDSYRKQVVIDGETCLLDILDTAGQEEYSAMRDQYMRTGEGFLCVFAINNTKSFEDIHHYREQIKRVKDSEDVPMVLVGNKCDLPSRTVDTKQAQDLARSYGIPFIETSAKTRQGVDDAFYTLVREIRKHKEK
assayDetails: KRas binding assay (TR-FRET tracer displacement), KRas G12V
propertyName: IC50 (nM)
Unit nM implied. Number only.

Q) API: value(readout=IC50, system=KRas^G12V (Homo sapiens, UniProt P01116, G12V)) for record CCc1c(F)ccc2cc(O)cc(-c3ncc4c(N5CCC6CCC(C6)C5)nc(OC[C@@]56CCCN5C[C@H](F)C6)nc4c3F)c12 (stereo partly drawn)
A) 14

Q) API: value(readout=IC50, system=KRas^G12V (Homo sapiens, UniProt P01116, G12V)) for record CCc1c(F)ccc2cc(O)cc(-c3ncc4c(N5CCN6C[C@@H](O)C[C@H]6C5)nc(OC[C@@]56CCCN5C[C@H](F)C6)nc4c3F)c12
A) 2430

Q) API: value(readout=IC50, system=KRas^G12V (Homo sapiens, UniProt P01116, G12V)) for record CCc1c(F)ccc2cc(O)cc(-c3ncc4c(N5CCC[C@@](C)(O)C5)nc(OCC5(CN)CC5)nc4c3F)c12
A) 5

---

system: KRas^G12D (Homo sapiens, UniProt P01116, G12D)
Construct: Biotinylated KRas (corresponding to amino acids 1-169, produced at Accelegan Inc.); biotin (biotinylated); purchased Accelegan Inc
Sequence (P01116 1-169 isoform P01116-2 G12D): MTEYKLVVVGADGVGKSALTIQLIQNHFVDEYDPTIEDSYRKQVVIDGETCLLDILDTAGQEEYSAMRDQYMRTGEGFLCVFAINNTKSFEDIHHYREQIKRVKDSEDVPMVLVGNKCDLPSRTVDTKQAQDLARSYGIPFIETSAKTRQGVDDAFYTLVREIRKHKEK
assayDetails: KRas binding assay (TR-FRET tracer displacement), KRas G12D
Task for the reader: assign each of the following compounds its reported IC50.
Unit nM implied. Number only.

Q) Look up IC50 for this compound: CCc1c(F)ccc2cc(O)cc(-c3ncc4c(N5CCOCC6(CCS(=O)(=O)CC6)C5)nc(OC[C@@]56CCCN5C[C@H](F)C6)nc4c3F)c12
A) 445

Q) Look up IC50 for this compound: CCc1c(F)ccc2cc(O)cc(-c3ncc4c(N5CC6CCC(C(=O)NC)(C6)C5)nc(OC[C@@]56CCCN5C[C@H](F)C6)nc4c3F)c12 (stereo partly drawn)
A) 4

Q) Look up IC50 for this compound: Cc1cc2[nH]ccc2c(-c2ncc3c(N4CCC[C@@](C)(O)C4)nc(OCC45CCCN4CCC5)nc3c2F)c1C
A) 2670

Q) Look up IC50 for this compound: CCc1c(F)ccc2cc(O)cc(-c3ncc4c(N5CC6CCC(C5)C6C#N)nc(OC[C@@]56CCCN5C[C@H](F)C6)nc4c3F)c12 (single isomer, unassigned) [Example 561]
A) 7

Q) Look up IC50 for this compound: C=C1[C@@H]2CC[C@H]1CN(c1nc(OC[C@@]34CCCN3C[C@H](F)C4)nc3c(F)c(-c4cc(O)cc5ccc(F)c(CC)c45)ncc13)C2
A) 65

---

system: KRas^G12A (Homo sapiens, UniProt P01116, G12A)
Construct: Biotinylated KRas (corresponding to amino acids 1-169, produced at Accelegan Inc.); biotin (biotinylated); purchased Accelegan Inc
Sequence (P01116 1-169 isoform P01116-2 G12A): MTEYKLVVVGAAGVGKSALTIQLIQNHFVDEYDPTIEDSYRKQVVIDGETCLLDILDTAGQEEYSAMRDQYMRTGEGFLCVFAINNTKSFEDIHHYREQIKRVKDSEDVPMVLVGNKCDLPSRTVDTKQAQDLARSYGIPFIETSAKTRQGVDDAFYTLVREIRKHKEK
assayDetails: KRas binding assay (TR-FRET tracer displacement), KRas G12A
cond: TR-FRET tracer displacement, KRas G12A
propertyName: log10 IC50 (log10 of the value in nM)
All values: log10 IC50 [nM].

Q) API: value(readout=log10 IC50, system=KRas^G12A (Homo sapiens, UniProt P01116, G12A)) for record C[C@@]1(O)CCCN(c2nc(OC[C@@]34CCCN3C[C@H](F)C4)nc3c(F)c(-c4c(C5CC5)c(Cl)cc5[nH]ncc45)ncc23)C1 [Example 880]
A) 0.95

Q) API: value(readout=log10 IC50, system=KRas^G12A (Homo sapiens, UniProt P01116, G12A)) for record Oc1cc(-c2ncc3c(N4C[C@@H]5C[C@H](C4)[C@H](O)C5)nc(OC[C@@]45CCCN4C[C@H](F)C5)nc3c2F)c2ccc(F)cc2c1 [Example 749]
A) 1.40

Q) API: value(readout=log10 IC50, system=KRas^G12A (Homo sapiens, UniProt P01116, G12A)) for record Cc1cc2[nH]ncc2c(-c2ncc3c(N4CC5CC(O)C(C5)C4)nc(OCC45CCCN4CCC5)nc3c2F)c1C (stereo not drawn) [Example 725]
A) 2.88

Q) API: value(readout=log10 IC50, system=KRas^G12A (Homo sapiens, UniProt P01116, G12A)) for record CCc1cccc2cc3[nH]ncc3c(-c3ncc4c(N5CCCC6(CNS(=O)(=O)N6)C5)nc(OC[C@@]56CCCN5C[C@H](F)C6)nc4c3F)c12 (stereo partly drawn) [Example 772]
A) 0.70

Q) API: value(readout=log10 IC50, system=KRas^G12A (Homo sapiens, UniProt P01116, G12A)) for record C#Cc1c(F)ccc2cc(O)cc(-c3ncc4c(N5CCC[C@@](C)(O)C5)nc(OC[C@@]56CCCN5[C@@H](CO)CC6)nc4c3F)c12 [Example 809]
A) 0.70

Q) API: value(readout=log10 IC50, system=KRas^G12A (Homo sapiens, UniProt P01116, G12A)) for record Oc1cc2ccccc2c(-c2ncc3c(N4C[C@@H]5C[C@H](C4)[C@H](O)C5)nc(OC[C@@]45CCCN4C[C@H](F)C5)nc3c2F)c1F [Example 751]
A) 2.13
